- System: DU-145
- assay_notes: Antiproliferative activity against AR-negative human DU-145 cells assessed as reduction in cell viability measured after 72 hrs by MTS assay
- experimental_setup: DU-145, 72 h
reported_endpoint: EC50

Requested field: EC50. Item: `CC(=O)OC[C@]12CC[C@H]3[C@@H](C[C@H]4O[C@]45CCCC(=O)[C@]35C)[C@]1(O)CC[C@@]2(O)[C@@](C)(O)[C@H]1C[C@@H](C)[C@@H](C)C(=O)O1`
> 2000 nM

Requested field: EC50. Item: `COc1cccc2c1C(=O)c1c(O)c3c(c(O)c1C2=O)C[C@@](O)(C(=O)CO)C[C@@H]3O[C@H]1C[C@H](N)[C@H](O)[C@H](C)O1`
40 nM

Requested field: EC50. Item: `CC(=O)OC[C@]12CC[C@H]3[C@@H](C[C@H]4O[C@]45CC=CC(=O)[C@]35C)[C@]1(O)CC[C@@]2(O)[C@@](C)(O)[C@H]1C[C@H](C)[C@H](C)C(=O)O1`
> 2000 nM

====

- assay_notes: Cytotoxicity against HFF cells assessed as reduction in cell viability measured after 72 hrs by MTS assay
- Type: toxicity, cell-based
- experimental_setup: human
Task for the reader: assign each of the following molecules its reported EC50 at 72 h.

Requested field: EC50 at 72 h. Item: `CC(=O)OC[C@]12CC[C@H]3[C@@H](C[C@@H]4O[C@@]45CC=CC(=O)[C@]35C)[C@]1(O)CC[C@@]2(O)[C@@](C)(O)[C@H]1CC(C)=C(C)C(=O)O1`
> 12 µM

Requested field: EC50 at 72 h. Item: `CC(=O)OC[C@]12CC[C@H]3[C@@H](CC=C4CC=CC(=O)[C@@]43C)[C@]1(O)CC[C@@]2(O)[C@@](C)(O)[C@H]1CC(C)=C(C)C(=O)O1`
> 3 µM

Requested field: EC50 at 72 h. Item: `COc1cccc2c1C(=O)c1c(O)c3c(c(O)c1C2=O)C[C@@](O)(C(=O)CO)C[C@@H]3O[C@H]1C[C@H](N)[C@H](O)[C@H](C)O1`
0.15 µM

Requested field: EC50 at 72 h. Item: CC1=C(C)C(=O)O[C@@H]([C@](C)(O)[C@]2(O)CC[C@@]3(O)[C@@H]4C[C@H]5O[C@]56CC=CC(=O)[C@]6(C)[C@H]4CC[C@]23C)C1 [WITHANOLIDE E]
> 10 µM

Requested field: EC50 at 72 h. Item: `CC(=O)OC[C@]12CC[C@H]3[C@@H](C[C@H]4O[C@]45CCCC(=O)[C@]35C)[C@]1(O)CC[C@@]2(O)[C@@](C)(O)[C@H]1C[C@@H](C)[C@@H](C)C(=O)O1`
> 2 µM

Requested field: EC50 at 72 h. Item: `Cc1sc2c(c1C)C(c1ccc(Cl)cc1)=N[C@@H](CC(=O)OC(C)(C)C)c1nnc(C)n1-2`
> 2 µM

Requested field: EC50 at 72 h. Item: `CC(=O)OC[C@]12CC[C@H]3[C@@H](C[C@H]4O[C@]45CC=CC(=O)[C@]35C)[C@]1(O)CC[C@@]2(O)[C@@](C)(O)[C@H]1C[C@]2(C)O[C@]2(C)C(=O)O1`
> 2 µM

Requested field: EC50 at 72 h. Item: `CC(=O)OC[C@]12CC[C@H]3[C@@H](C[C@H]4O[C@]45CC=CC(=O)[C@]35C)[C@]1(O)CC[C@@]2(O)[C@@](C)(O)[C@H]1C[C@H](C)[C@H](C)C(=O)O1`
> 2 µM

====

- test_system: Bromodomain testis-specific protein (Homo sapiens, UniProt Q58F21)
- assay_notes: Binding affinity to human partial length BRDT BD1 (N21 to E137 residues) expressed in bacterial expression system using H4K5acIC8acK12acK16ac-biotinylated peptide as substrate preincubated for 30 mins followed by substrate addition by AlphaScreen assay
reported_endpoint: IC50 (µM)
Give the number; µM is assumed, so skip it.

Requested field: IC50. Item: `CC(=O)OC[C@]12CC[C@H]3[C@@H](C[C@H]4O[C@]45CC=CC(=O)[C@]35C)[C@]1(O)CC[C@@]2(O)[C@@](C)(O)[C@H]1CC(C)=C(C)C(=O)O1`
0.403

====

- test_system: Bromodomain-containing protein 4 (Homo sapiens, UniProt O60885)
- assay_notes: Inhibition of BRD4-BD1 (unknown origin) by fluorescence polarization assay
reported_endpoint: pIC50
Convention used: pIC50 is expressed as -log10 of the molar concentration.

Requested field: pIC50. Item: `CC(=O)OC[C@]12CC[C@H]3[C@@H](C[C@@H]4O[C@@]45CC=CC(=O)[C@]35C)[C@]1(O)CC[C@@]2(O)[C@@](C)(O)[C@H]1CC(C)=C(C)C(=O)O1`
7.51

Requested field: pIC50. Item: `CC(=O)OC[C@]12CC[C@H]3[C@@H](C[C@H]4O[C@]45CC=CC(=O)[C@]35C)[C@]1(O)[C@@H](OC(C)=O)C[C@@]2(O)[C@@](C)(O)[C@H]1CC(C)=C(C)C(=O)O1`
7.32

Requested field: pIC50. Item: `CC1=C(CO)C[C@H]([C@](C)(O)[C@]2(O)CC[C@@]3(O)[C@@H]4C[C@H]5O[C@]56CC=CC(=O)[C@]6(C)[C@H]4CC[C@]23C)OC1=O`
6.55

Requested field: pIC50. Item: `CC(=O)OC[C@]12CC[C@H]3[C@@H](CC=C4C=CCC(=O)[C@@]43C)[C@]1(O)CC[C@@]2(O)[C@@](C)(O)[C@H]1CC(C)=C(C)C(=O)O1`
6.04

Requested field: pIC50. Item: CC1=C(C)C(=O)O[C@@H]([C@](C)(O)[C@]2(O)CC[C@@]3(O)[C@@H]4C[C@H]5O[C@]56CC=CC(=O)[C@]6(C)[C@H]4CC[C@]23C)C1 [WITHANOLIDE E]
6.25

Requested field: pIC50. Item: `CC(=O)OC[C@]12CC[C@H]3[C@@H](C[C@H]4O[C@]45CCCC(=O)[C@]35C)[C@]1(O)CC[C@@]2(O)[C@@](C)(O)[C@H]1C[C@@H](C)[C@@H](C)C(=O)O1`
5.41

Requested field: pIC50. Item: `CC(=O)OC[C@]12CC[C@H]3[C@@H](C[C@H]4O[C@]45CCCC(=O)[C@]35C)[C@]1(O)CC[C@@]2(O)[C@@](C)(O)[C@H]1CC(C)=C(C)C(=O)O1`
7.22

Requested field: pIC50. Item: `CC(=O)OC[C@]12CC[C@H]3[C@@H](C[C@H]4O[C@]45CC=CC(=O)[C@]35C)[C@]1(O)CC[C@@]2(O)[C@@](C)(O)[C@H]1C[C@]2(C)O[C@]2(C)C(=O)O1`
5.71

Requested field: pIC50. Item: `CC(=O)OC[C@]12CC[C@H]3[C@@H](CC=C4CC=CC(=O)[C@@]43C)[C@]1(O)CC[C@@]2(O)[C@@](C)(O)[C@H]1CC(C)=C(C)C(=O)O1`
7.71

====

- test_system: Bromodomain-containing protein 2 (Homo sapiens, UniProt P25440)
- Sequence (P25440 whole entry, the tested form may be a part): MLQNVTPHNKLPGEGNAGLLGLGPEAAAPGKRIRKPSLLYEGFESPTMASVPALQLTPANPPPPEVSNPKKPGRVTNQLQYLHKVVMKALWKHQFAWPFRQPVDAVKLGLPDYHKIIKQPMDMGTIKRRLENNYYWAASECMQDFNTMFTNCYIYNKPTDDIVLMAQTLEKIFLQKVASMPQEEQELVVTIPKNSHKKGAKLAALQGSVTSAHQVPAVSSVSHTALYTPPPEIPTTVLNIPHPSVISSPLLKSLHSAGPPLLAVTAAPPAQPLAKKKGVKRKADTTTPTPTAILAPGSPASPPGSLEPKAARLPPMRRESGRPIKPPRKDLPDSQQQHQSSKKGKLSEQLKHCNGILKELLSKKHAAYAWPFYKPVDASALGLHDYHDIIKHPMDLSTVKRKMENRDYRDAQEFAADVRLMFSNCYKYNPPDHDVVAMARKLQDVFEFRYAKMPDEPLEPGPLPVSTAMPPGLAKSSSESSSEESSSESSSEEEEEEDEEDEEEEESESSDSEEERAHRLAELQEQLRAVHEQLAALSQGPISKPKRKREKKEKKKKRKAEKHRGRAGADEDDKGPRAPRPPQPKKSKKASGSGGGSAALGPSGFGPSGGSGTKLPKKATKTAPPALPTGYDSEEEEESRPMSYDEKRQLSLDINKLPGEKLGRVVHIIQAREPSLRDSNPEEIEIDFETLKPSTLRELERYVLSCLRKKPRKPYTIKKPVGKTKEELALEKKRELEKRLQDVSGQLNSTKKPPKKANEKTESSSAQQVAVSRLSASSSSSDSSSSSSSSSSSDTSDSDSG
- assay_notes: Binding affinity to human partial length BRD2 BD1 (K71 to N194 residues) expressed in bacterial expression system using H4K5acIC8acK12acK16ac-biotinylated peptide as substrate preincubated for 30 mins followed by substrate addition by AlphaScreen assay
reported_endpoint: IC50 (nM)
Give the number; nM is assumed, so skip it.

Please state recorded IC50 (tested on Bromodomain-containing protein 2 (Homo sapiens, UniProt P25440)) of `CC(=O)OC[C@]12CC[C@H]3[C@@H](C[C@H]4O[C@]45CC=CC(=O)[C@]35C)[C@]1(O)CC[C@@]2(O)[C@@](C)(O)[C@H]1CC(C)=C(C)C(=O)O1`
103

====

- test_system: Bromodomain-containing protein 4 (Homo sapiens)
- assay_notes: Inhibition of BRD4-BD2 (unknown origin) by fluorescence polarization assay
Task for the reader: assign each of the following molecules its reported IC50.
Give the number; µM is assumed, so skip it.

Requested field: IC50. Item: `CC(=O)OC[C@]12CC[C@H]3[C@@H](C[C@H]4O[C@]45CCCC(=O)[C@]35C)[C@]1(O)CC[C@@]2(O)[C@@](C)(O)[C@H]1C[C@@H](C)[C@@H](C)C(=O)O1`
1.83

Requested field: IC50. Item: `CC(=O)OC[C@]12CC[C@H]3[C@@H](CC=C4CC=CC(=O)[C@@]43C)[C@]1(O)CC[C@@]2(O)[C@@](C)(O)[C@H]1CC(C)=C(C)C(=O)O1`
3.92

Requested field: IC50. Item: `CC(=O)OC[C@]12CC[C@H]3[C@@H](C[C@H]4O[C@]45CC=CC(=O)[C@]35C)[C@]1(O)CC[C@@]2(O)[C@@](C)(O)[C@H]1C[C@]2(C)O[C@]2(C)C(=O)O1`
5.63

Requested field: IC50. Item: CC1=C(C)C(=O)O[C@@H]([C@](C)(O)[C@]2(O)CC[C@@]3(O)[C@@H]4C[C@H]5O[C@]56CC=CC(=O)[C@]6(C)[C@H]4CC[C@]23C)C1 [WITHANOLIDE E]
1.52
